Test system: SUDHL10
Test: Induction of cytotoxicity (CellTiter-Glo, 5 h), SUDHL10
Conditions: read-out: Cytotox SUDHL10 [M] (median); SUDHL10 cells, cytotoxicity induction, CellTiter-Glo, 5 h incubation, median
Measured IC50 by item

[
  {
    "compound": "CN1CCCCn2c(C(=O)O)c(CCCOc3cccc4ccccc34)c3cccc(c32)-c2c(/C=C/F)nn(C)c2C1 (single isomer, unassigned) [Example 227]",
    "experimental_system": "SUDHL10",
    "IC50": "> 3.3e-05 M"
  },
  {
    "compound": "Cc1ccc2c(C(C)CCOc3cccc4ccccc34)c(C(=O)O)n3c2c1-c1c(C)nn(C)c1COCCCC3 (single isomer, unassigned) [Example 258]",
    "experimental_system": "SUDHL10",
    "IC50": "> 3.3e-05 M"
  },
  {
    "compound": "Cn1nc(CC(F)(F)F)c2c1COCCCCn1c(C(=O)O)c(CCCOc3cccc4ccccc34)c3cccc-2c31 (single isomer, unassigned) [Example 221]",
    "experimental_system": "SUDHL10",
    "IC50": "> 3.3e-05 M"
  },
  {
    "compound": "CCc1nn(C)c2c1-c1c(C)ccc3c(CCCOc4cccc5cc(F)ccc45)c(C(=O)O)n(c13)CCCCOC2 (single isomer, unassigned) [Example 267]",
    "experimental_system": "SUDHL10",
    "IC50": "3.66e-06 M"
  },
  {
    "compound": "Cc1nn(C)c2c1-c1cccc3c(CCCOc4cccc5c4CCCC5)c(C(=O)O)n(c13)CCCCOC2 (single isomer, unassigned; enantiomer 2) [Example 008]",
    "experimental_system": "SUDHL10",
    "IC50": "> 3.3e-05 M"
  }
]

Now examine the next entry.
Exercise: So what's the measured IC50 for this one? Cc1nn(C)c2c1-c1cccc3c(CCCOc4cccc5c4CCCC5)c(C(=O)O)n(c13)CCCCOC2 (racemic) [Example 006]
Key: > 3.3e-05 M

Entry source: patent US10981932B2
